# MEASURED_ON: T1, recombinant human OX40-Fc (human, UniProt P43489 29-214)
# T1 construct: also called rh-OX40-Fc; human OX40 hFC (R & D systems)
# T1 sequence: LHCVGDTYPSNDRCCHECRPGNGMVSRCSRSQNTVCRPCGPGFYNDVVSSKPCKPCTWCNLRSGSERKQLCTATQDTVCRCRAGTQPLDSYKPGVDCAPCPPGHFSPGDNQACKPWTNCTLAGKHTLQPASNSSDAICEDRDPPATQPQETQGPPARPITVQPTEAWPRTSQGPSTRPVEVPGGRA
# PROTOCOL_NOTES: ELISA, OX40-Fc coated, VHH at 200 nM
PROPERTY_NAME: OD450

Look over these answered cases.
pgXX88-83 (VHH, not shown: small tags and cut ends) VHH: EVQLVESGGGLVQTGDSLRLSCAALGGTPSTYAIGWFRQAAGKELQFVARITWNGDTWYADALPGRVAISRDNAKKTVYLQMNNLKPEDTAEYICAADVSEFRDIPNRDSRANYRYWGQGTQVTVSS	0.243
pgXX88-2 (VHH, not shown: small tags and cut ends) VHH: EVQLVESGGGLVQPGGSLRLSCAASGFAFGDIPMMWVRQAPGKGREWVSSISADSATQSYADSVQDRFTISRDNAKNTLYLEMHILKPEDTAVYYCATTDRPPPGQGTQVTVSS	1.66
pgXX88-60 (VHH, not shown: small tags and cut ends) VHH: EVQLVESGGGLAQPGGSLRLSCAASGFTFSNYAMGWYRQAPGKEREFVAAIDWSTNALLYGDSVKGRFTISRDNAKNTVFLQMSGLKPEDTALYYCAADRAYHTVVLGPPEGMDYWGKGTQVTVSS	0.61

a: pgXX88-19 (VHH, not shown: small tags and cut ends) VHH: EVQLVESGGGLVQAGGSLRLSCVATGRTRSSTYIMAWFRQAPGKERDFVAAISFIGGSPVYTDSVKGRFTISRVIAENTVHLQMNDLTPEDTALYYCAATDSGPLGPSGPSKYEYWGQGTQVTVSS
b: pgXX88-5 (VHH, not shown: small tags and cut ends) VHH: QVQLVESGGGLVQAGGSLRLSCAASGGTFSTYAMGWFRQAPGKEPQFVARITWSGYTLYTEPVQGRFAISRDNAKNTVYLQMNSLKPEDTAEYFCAADSSEFRDIPNRDSRANYRYWGQGTQVTVSS
Ask | I need your help: which of the pair a , b has higher OD450? Kindly state the label of the option you pick.
Reply | a
(a: 1.62, b: 0.543)
